- experimentalContext: in sec-butanol, 308.15 K

{"smi": "C=CC1=C(C(=O)O)N2C(=O)[C@@H](NC(=O)/C(=N\\OCC(=O)O)c3csc(N)n3)[C@H]2SC1.O.O.O", "solubility (mole fraction)": 0.00211}

---

- experimentalContext: in n-pentanol, 323.15 K

{"smi": "C=CC1=C(C(=O)O)N2C(=O)[C@@H](NC(=O)/C(=N\\OCC(=O)O)c3csc(N)n3)[C@H]2SC1.O.O.O", "solubility (mole fraction)": 0.003}

---

- experimentalContext: in sec-butanol, 288.15 K

{"smi": "C=CC1=C(C(=O)O)N2C(=O)[C@@H](NC(=O)/C(=N\\OCC(=O)O)c3csc(N)n3)[C@H]2SC1.O.O.O", "solubility (mole fraction)": 0.00119}

---

- experimentalContext: in n-pentanol, 288.15 K

{"smi": "C=CC1=C(C(=O)O)N2C(=O)[C@@H](NC(=O)/C(=N\\OCC(=O)O)c3csc(N)n3)[C@H]2SC1.O.O.O", "solubility (mole fraction)": 0.000602}

---

- experimentalContext: in sec-butanol, 298.15 K
measuredAttribute: solubility (mole fraction)

{"smi": "C=CC1=C(C(=O)O)N2C(=O)[C@@H](NC(=O)/C(=N\\OCC(=O)O)c3csc(N)n3)[C@H]2SC1.O.O.O", "endpointValue": 0.0015}

---

- experimentalContext: in sec-butanol, 278.15 K
measuredAttribute: solubility (mole fraction)

{"smi": "C=CC1=C(C(=O)O)N2C(=O)[C@@H](NC(=O)/C(=N\\OCC(=O)O)c3csc(N)n3)[C@H]2SC1.O.O.O", "endpointValue": 0.000899}

---

- experimentalContext: in ethyl acetate, 313.15 K

{"smi": "C=CC1=C(C(=O)O)N2C(=O)[C@@H](NC(=O)/C(=N\\OCC(=O)O)c3csc(N)n3)[C@H]2SC1.O.O.O", "solubility (mole fraction)": 0.00226}

---

- experimentalContext: in ethyl acetate, 323.15 K
measuredAttribute: solubility (mole fraction)

{"smi": "C=CC1=C(C(=O)O)N2C(=O)[C@@H](NC(=O)/C(=N\\OCC(=O)O)c3csc(N)n3)[C@H]2SC1.O.O.O", "measuredAttribute": "solubility (mole fraction)", "endpointValue": 0.00334}

---

- experimentalContext: in n-butanol, 313.15 K
measuredAttribute: solubility (mole fraction)

{"smi": "C=CC1=C(C(=O)O)N2C(=O)[C@@H](NC(=O)/C(=N\\OCC(=O)O)c3csc(N)n3)[C@H]2SC1.O.O.O", "endpointValue": 0.00293}

---

- experimentalContext: in isopropanol, 313.15 K

{"smi": "C=CC1=C(C(=O)O)N2C(=O)[C@@H](NC(=O)/C(=N\\OCC(=O)O)c3csc(N)n3)[C@H]2SC1.O.O.O", "solubility (mole fraction)": 0.00255}

---

- experimentalContext: in sec-butanol, 318.15 K
measuredAttribute: solubility (mole fraction)

{"smi": "C=CC1=C(C(=O)O)N2C(=O)[C@@H](NC(=O)/C(=N\\OCC(=O)O)c3csc(N)n3)[C@H]2SC1.O.O.O", "measuredAttribute": "solubility (mole fraction)", "endpointValue": 0.00276}

---

- experimentalContext: in n-pentanol, 318.15 K
measuredAttribute: solubility (mole fraction)

{"smi": "C=CC1=C(C(=O)O)N2C(=O)[C@@H](NC(=O)/C(=N\\OCC(=O)O)c3csc(N)n3)[C@H]2SC1.O.O.O", "endpointValue": 0.00255}
